Each recorded value in this set is attributed to patent US20120329787A1.

System: Alternaria solani
assay_explanation: Test B: tomato early blight, spray on tomato seedlings the day before inoculation
Type: in vivo
reported_conditions: 200 ppm test suspension
Description: General protocol for preparing test suspensions for Tests A-I: the test compounds were first dissolved in acetone in an amount equal to 3% of the final volume and then suspended at the desired concentration (in ppm) in acetone and purified water (50/50 mix by volume) containing 250 ppm of the surfactant Trem® 014 (polyhydric alcohol esters). […]
// values below are reported Test B rating (100 = 100% disease control, 0 = no disease control)
Numeric answer only, unit % assumed.

Please review the following examples before continuing.
molecule_smiles=COc1cc(OC)cc(-c2c(C)noc(=O)c2-c2c(F)cc(F)cc2F)c1 observed_measurement=63
molecule_smiles=COc1cc(OC)cc(-c2cc(=O)oc(C)c2-c2ccc(F)cc2Cl)c1 observed_measurement=99
molecule_smiles=COc1cc(OC)cc(-c2c(-c3ccc(F)cc3F)c(C)oc(=O)c2-c2ccccc2)c1 observed_measurement=100
molecule_smiles=COc1cc(OC)cc(-c2c(-c3ccccc3F)c(C)oc(=O)c2C)c1 observed_measurement=26
molecule_smiles=COc1cc(OC)cc(-c2c(-c3ccc(F)cc3Cl)c(C)oc(=O)c2C)c1 observed_measurement=98
molecule_smiles=COc1cc(OC)cc(-c2c(C)oc(=O)c(C)c2-c2c(F)cc(OC)cc2F)c1 observed_measurement=100

# input for lookup
Challenge: Lab request: please report Test B rating (100 = 100% disease control, 0 = no disease control) under test system Alternaria solani for Cc1noc(=O)c(-c2c(F)cccc2F)c1-c1ccc(Cl)cc1
Response given: 100
